target: pooled human IgG (human); test: cell-based or functional assay; note: test concentration or dose not given here
Kindly supply the reported Enzyme Activity Endpoint Assay (purified): scIgG values for the records listed here.

State the recorded Enzyme Activity Endpoint Assay (purified): scIgG for every item in the following list.
1. PRT-225 (enzyme) MEVVEVWPYGQNPNGKTEILSQTEDSESLQRLRDIEDFQAEKKKENVVYTKWLDGVDVKDHDFRKIVDGNIEYYATPLLNGRGFYDINKDFNRDSDKCAAAVAANMFHYWLDINRDNVDRFLRQNPEKHGIIELPDGQLKLSDFLNTYESDHGYRDKSKLFDFISNNFNGPVWTDKLLDNYINGYAYNYKYGRTIEDPTKNTSKINFFKEVFNEKILTNNHSIRNQNEFSVLLSEALYTGKAIGLSYGPAGLRHSLGHIISVWGADLDADGNVVAIYVTDSDDKKLTIGDERVGLKRYKISTDDENRARLTAYEETDNTGGQIRGLWTLDTGKQAWADYFDKTEQTGTDQAEQLEHHHHHH
2. PRT-199 (enzyme) MEVVEVWPYGQNPNGKTEILSQTEDSESLQRLRDIEDFQAEKKKQNVVYTKWLDGVDVKDHDFRKIVDGNIAYYATPLLNGRGFYDINKDFNRDSDKCAAAVAANMFHYWLDRNRDNVDRFLRQNPEKHGIIELPDGQLKLSDFLNTYESDDGYRDKSKLFDFISNNFNGPVWTDKLLDNYINGYAYNYKYGRTIEDPTKNTSKINFFKEVFNEKILTNNHSIRNQNEFSVLLSEALYTGKAIGLSYGPAGLRHSLGHIISVWGADLDADGNVVAIYVTDSDDKKLTIGDERVGLKRYKISTDDEGRLRLTAYEETHNTGGQIRGLWTLDTGKQAWADYFDKTEQTGTDQAEQLEHHHHHH

Result:
["0 ng/µL", "544 ng/µL"]
